The compounds listed here are annotated with their inhibition.
molecular target: Rac GTPase-activating protein 1 (Homo sapiens); experiment: blockers of MgcRacGAP-driven Rac1 GTP hydrolysis – biochemical, ADP Hunter fluorescence, primary and confirmatory, confirmation (AID 624330); conditions: MgcRacGAP-stimulated Rac1 GTP hydrolysis, at 30 µM, hits give high values, GST-tagged Rac1 F28L mutant substrate;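 further: fluorescence reports GDP produced by GAP-driven GTP hydrolysis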
The campaign covered roughly 340,000 compounds. About 2,100 (0.62%) were called active. Not all results are given here. Potency and affinity values are given separately.

>  <entry_smiles>
O=c1cc(O)c2ccc(O)cc2o1

>  <unit_label>
%

>  <inhibition>
11.2

$$$$
>  <entry_smiles>
O=c1c(O)c(-c2ccc(O)c(O)c2)oc2cc(O)cc(O)c12

>  <unit_label>
%

>  <inhibition>
24.2

$$$$
>  <entry_smiles>
O=C(Nc1ccc(N2CCCCC2)cc1)c1ccccc1

>  <unit_label>
%

>  <inhibition>
36.6

$$$$
>  <entry_smiles>
COc1ccc(-c2coc3cc(O)ccc3c2=O)cc1

>  <unit_label>
%

>  <inhibition>
-1.73

$$$$
>  <entry_smiles>
COc1c(-c2ccc(O)cc2)oc2cc(O)cc(O)c2c1=O

>  <unit_label>
%

>  <inhibition>
8.09

$$$$
>  <entry_smiles>
CC(=O)N1CCN(c2ccc(NC(=O)c3ccccc3C)cc2)CC1

>  <unit_label>
%

>  <inhibition>
9.24

$$$$

* * *

biological target: Rac GTPase-activating protein 1 (Homo sapiens) (UniProt Q9H0H5); assay: blockers of MgcRacGAP-driven Rac1 GTP hydrolysis – biochemical, ADP Hunter fluorescence, primary and confirmatory, confirmation (AID 624330); conditions: MgcRacGAP-stimulated Rac1 GTP hydrolysis, at 30 µM, hits give high values, GST-tagged Rac1 F28L mutant substrate;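 further: fluorescence reports GDP produced by GAP-driven GTP hydrolysis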
Sequence (Q9H0H5 whole entry, looked up): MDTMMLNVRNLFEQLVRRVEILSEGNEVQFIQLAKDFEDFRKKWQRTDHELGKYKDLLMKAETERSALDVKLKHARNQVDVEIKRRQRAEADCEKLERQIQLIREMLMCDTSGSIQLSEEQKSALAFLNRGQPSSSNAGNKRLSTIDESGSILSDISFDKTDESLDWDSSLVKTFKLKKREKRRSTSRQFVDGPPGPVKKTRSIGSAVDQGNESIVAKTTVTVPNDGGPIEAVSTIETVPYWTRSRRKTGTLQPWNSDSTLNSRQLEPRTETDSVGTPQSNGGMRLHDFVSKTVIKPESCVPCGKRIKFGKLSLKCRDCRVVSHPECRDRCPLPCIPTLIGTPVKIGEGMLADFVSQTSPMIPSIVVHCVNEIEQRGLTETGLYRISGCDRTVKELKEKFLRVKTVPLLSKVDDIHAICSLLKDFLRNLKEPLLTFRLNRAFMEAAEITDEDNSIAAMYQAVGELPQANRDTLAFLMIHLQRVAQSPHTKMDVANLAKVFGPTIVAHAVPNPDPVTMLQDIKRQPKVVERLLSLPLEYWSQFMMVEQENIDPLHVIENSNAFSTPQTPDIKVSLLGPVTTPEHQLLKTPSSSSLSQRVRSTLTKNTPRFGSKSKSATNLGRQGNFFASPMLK
In all, about 340,000 compounds went through this assay and about 2,100 (0.62%) were called active. Not all results are given here. Potency and affinity values are given separately.
Listed below: inhibition values for each entry.
metric_name: inhibition (%)

>  <compound>
CCCNC(=O)CSC1=N/C(=C/c2ccc(F)cc2)C(=O)N1CC

>  <metric_name>
inhibition

>  <quantitative_readout>
-5.26

$$$$
>  <compound>
C[C@@]12C(=O)N(CC3CC3)CC(=O)N1[C@H](C1CC1)[C@@H]1C(=O)N(c3ccccc3)C(=O)[C@@H]12

>  <metric_name>
inhibition

>  <quantitative_readout>
7.67

$$$$
>  <compound>
COc1ccc(N2CCN(C(=O)CSc3nnnn3C3CC3)CC2)cc1

>  <metric_name>
inhibition

>  <quantitative_readout>
16.6

$$$$
>  <compound>
COc1ccc(N2CCN(C(=O)CSc3nnc(C4CC4)n3C3CC3)CC2)cc1

>  <metric_name>
inhibition

>  <quantitative_readout>
24.3

$$$$
>  <compound>
CCN1C(=O)[C@H]2[C@@H](c3ccc(Cl)cc3)N3C(=O)CN(Cc4ccccc4)C(=O)[C@@]3(C)[C@H]2C1=O

>  <metric_name>
inhibition

>  <quantitative_readout>
5.83

$$$$
>  <compound>
CCc1sc(C(=O)NCCCN2CCCC2=O)cc1Br

>  <metric_name>
inhibition

>  <quantitative_readout>
-10

$$$$
>  <compound>
Cc1nnc(SCC(=O)N2CCN(c3ccccc3)CC2)n1C1CC1

>  <metric_name>
inhibition

>  <quantitative_readout>
5.61

$$$$
>  <compound>
CCN(CC(=O)Nc1ccc(C#N)cc1)CC(=O)Nc1ccc2c(c1)OCCO2

>  <metric_name>
inhibition

>  <quantitative_readout>
4.07

$$$$
>  <compound>
COC(=O)c1c(NC(=O)CC2SC(N)=NC2=O)sc(C)c1C (stereo not given)

>  <metric_name>
inhibition

>  <quantitative_readout>
-4.36

$$$$
>  <compound>
CCOC(=O)C1C(=O)CC(C)(O)C(C(=O)OCC)C1c1ccc([N+](=O)[O-])cc1 (stereo not given)

>  <metric_name>
inhibition

>  <quantitative_readout>
11.4

$$$$
